# Test Details: Oral bioavailability in SCID mouse at 3 mg/kg by LC-MS/MS analysis
# Type: ADME, organism-based
# Test Settings: in vivo
Lab note: anything with F below 30% is marked t; values at 30% or higher are marked f.

Solved cases below.
Molecule	Classification
CN(c1ccc(C#N)c(Cl)c1)[C@H]1CC[C@H](NC(=O)c2ccc(N3CCN(C4CCN(c5ccc6c(c5)C(=O)N(C5CCC(=O)NC5=O)C6=O)CC4)CC3)cc2)CC1 (some centres not stated)	t
CN(c1ccc(C#N)c(Cl)c1)[C@H]1CC[C@H](NC(=O)c2ccc(N3CC(N4CCN(c5ccc6c(c5)C(=O)N(C5CCC(=O)NC5=O)C6=O)CC4)C3)cc2)CC1 (some centres not stated)	f
CN(c1ccc(C#N)c(Cl)c1)[C@H]1CC[C@H](NC(=O)c2ccc(N3CCC(N4CCN(c5ccc6c(c5)C(=O)N(C5CCC(=O)NC5=O)C6=O)CC4)CC3)cc2)CC1 (some centres not stated)	f
CN(c1ccc(C#N)c(Cl)c1)[C@H]1CC[C@H](NC(=O)c2ccc(N3CCC(CN4CCN(c5ccc6c(c5)C(=O)N(C5CCC(=O)NC5=O)C6=O)CC4)CC3)cc2)CC1 (some centres not stated)	f

Now take the following molecule into account.
I wonder whether CN(c1ccc(C#N)c(Cl)c1)[C@H]1CC[C@H](NC(=O)c2ccc(N3CC(CN4CCN(c5ccc6c(c5)C(=O)N(C5CCC(=O)NC5=O)C6=O)CC4)C3)cc2)CC1 (some centres not stated) has F below 30%. Can you tell?
f

Values compiled from ChEMBL document CHEMBL4842372.
